- Experimental details: Pharmacokinetic study after intravenous and oral administration in male SD rats
- Format: in vivo
- Condition: rat, PO vs IV
Measured parameter: F

>  <Compound>
CCOC(=O)C1=C(CN2CCN3C(=O)N(CC(C)(C)C(=O)O)C[C@@H]3C2)NC(c2nccs2)=N[C@H]1c1cccc(F)c1C [Reference 2, reference compound]

>  <Measurement>
50.8%

$$$$
>  <Compound>
COC(=O)C1=C(CN2CCN3C(=S)N(CC(C)(C)C(=O)O)CC3C2)NC(c2nccs2)=NC1c1ccc(F)cc1Cl (single isomer, unassigned) [Compound 4B]

>  <Measurement>
56.5%

$$$$
>  <Compound>
CCOC(=O)C1=C(CN2CCN3C(=S)N(CC(C)(C)C(=O)O)CC3C2)NC(c2nccs2)=N[C@H]1c1cccc(F)c1C (single isomer, unassigned) [Compound 1A]

>  <Measurement>
113%

$$$$
>  <Compound>
CCOC(=O)C1=C(CN2CCN3C(=S)N(CC(C)(C)C(=O)O)CC3C2)NC(c2nccs2)=NC1c1cccc(F)c1Cl (single isomer, unassigned) [Compound 3B]

>  <Measurement>
50.3%

$$$$

* * *

# Lookup of reported F keyed by entry
- Experimental details: Pharmacokinetic and tissue distribution study via intravenous and oral administration in male C57BL/6 mice
- Type: in vivo
- Condition: mice, PO vs IV
Measured parameter: F (%)

>  <Compound>
CCOC(=O)C1=C(CN2CCN3C(=S)N(CC(C)(C)C(=O)O)CC3C2)NC(c2nccs2)=NC1c1cccc(F)c1Cl (single isomer, unassigned)

>  <Measurement>
126

$$$$
>  <Compound>
CCOC(=O)C1=C(CN2CCOCC2)NC(c2nccs2)=NC1c1ccc(F)cc1Br (stereo not shown) [Reference 1, GLS4, reference compound]

>  <Measurement>
7.5

$$$$
>  <Compound>
CCOC(=O)C1=C(CN2CCN3C(=S)N(CC(C)(C)C(=O)O)CC3C2)NC(c2nccs2)=N[C@H]1c1cccc(F)c1C (single isomer, unassigned)

>  <Measurement>
72.9

$$$$
>  <Compound>
CCOC(=O)C1=C(CN2CCN3C(=O)N(CC(C)(C)C(=O)O)C[C@@H]3C2)NC(c2nccs2)=N[C@H]1c1cccc(F)c1C [Reference 2, reference compound]

>  <Measurement>
52.7

$$$$

* * *

- Experimental details: Cytotoxicity determination in HepG2.2.15 cells (CCK-8 assay)
- Format: cell-based
- Condition: human, 6 days treatment, CCK-8, highest concentration 100 uM
CC50 at 6 days strictly under 20 µM means Yes; at 20 µM or over means No.

>  <Compound>
[2H][C@@]1(c2cccc(F)c2C)N=C(c2nccs2)NC(CN2CCN3C(=S)N(CC(C)(C)C(=O)O)C[C@@H]3C2)=C1C(=O)OCC (single isomer, unassigned) [Compound 36B]

>  <Class>
No

$$$$
>  <Compound>
CCOC(=O)C1=C(CN2CCN3C(=S)N(CC(CC)C(=O)O)CC3C2)NC(c2nccs2)=N[C@H]1c1cccc(F)c1C (stereo partly drawn)

>  <Class>
Yes

$$$$
>  <Compound>
CCOC(=O)C1=C(CN2CCN3C(=S)N(CC(C)(C)C(=O)O)C[C@@H]3C2)NC(c2nccs2)=N[C@H]1c1ccc(C)cc1F (single isomer, unassigned) [Compound 25A]

>  <Class>
No

$$$$
>  <Compound>
CCOC(=O)C1=C(CN2CCN3C(=S)N(CC(C)(C)C(=O)O)C[C@@H]3C2)NC(c2nccs2)=N[C@H]1c1ccc(F)cc1Cl (single isomer, unassigned) [Compound 21A]

>  <Class>
Yes

$$$$
>  <Compound>
CCOC(=O)C1=C(CN2CCN3C(=S)N(C)C[C@@H]3[C@H]2C(=O)O)NC(c2nccs2)=N[C@H]1c1cccc(F)c1Cl (relative stereo) [Compound 19A]

>  <Class>
No

$$$$
>  <Compound>
COC(=O)C1=C(CN2CCN3C(=S)N(CC(C)(C)C(=O)O)CC3C2)NC(c2ncoc2C)=NC1c1cccc(F)c1C (single isomer, unassigned) [Compound 31A]

>  <Class>
No

$$$$
